systemUnderTest: CSNK1E1 (Homo sapiens, UniProt P49674)
procedureDetails: KINOMEscan kinase competition binding assay (DiscoverX)
details: absence of ATP, three-point titration
measurementName: IC50 (nM)
One number for each entry, in nM.

The reported value for "Cc1cccc(-c2nn3c(c2-c2ccnc4ccc(C(N)=O)cc24)CCC3)n1.O" in terms of IC50 is 400

###

systemUnderTest: TGFβRII (Homo sapiens)
Sequence (P37173 23-567): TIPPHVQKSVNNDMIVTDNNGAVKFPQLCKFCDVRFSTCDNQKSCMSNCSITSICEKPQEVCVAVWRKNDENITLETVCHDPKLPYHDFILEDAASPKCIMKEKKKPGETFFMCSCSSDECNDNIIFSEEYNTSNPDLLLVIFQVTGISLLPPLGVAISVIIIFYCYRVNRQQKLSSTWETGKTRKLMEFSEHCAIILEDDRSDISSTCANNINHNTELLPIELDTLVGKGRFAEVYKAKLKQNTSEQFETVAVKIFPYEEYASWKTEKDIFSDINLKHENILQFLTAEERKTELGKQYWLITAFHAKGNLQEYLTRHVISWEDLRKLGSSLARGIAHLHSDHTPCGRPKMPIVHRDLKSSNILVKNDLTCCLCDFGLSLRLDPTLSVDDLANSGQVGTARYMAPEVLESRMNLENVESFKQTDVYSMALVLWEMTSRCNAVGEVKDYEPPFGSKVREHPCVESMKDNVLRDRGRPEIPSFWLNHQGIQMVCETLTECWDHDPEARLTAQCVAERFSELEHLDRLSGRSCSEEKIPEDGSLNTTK
procedureDetails: Confirmatory TGFβRII binding assay
measurementName: IC50 (nM)
Give bare numbers, in nM.

The reported value for "Cc1cccc(-c2nn3c(c2-c2ccnc4ccc(C(N)=O)cc24)CCC3)n1.O" in terms of IC50 is 430

###

systemUnderTest: Alk6/BMPR1 (Homo sapiens, UniProt O00238)
Construct: purchased DiscoverX
Sequence (O00238 14-502): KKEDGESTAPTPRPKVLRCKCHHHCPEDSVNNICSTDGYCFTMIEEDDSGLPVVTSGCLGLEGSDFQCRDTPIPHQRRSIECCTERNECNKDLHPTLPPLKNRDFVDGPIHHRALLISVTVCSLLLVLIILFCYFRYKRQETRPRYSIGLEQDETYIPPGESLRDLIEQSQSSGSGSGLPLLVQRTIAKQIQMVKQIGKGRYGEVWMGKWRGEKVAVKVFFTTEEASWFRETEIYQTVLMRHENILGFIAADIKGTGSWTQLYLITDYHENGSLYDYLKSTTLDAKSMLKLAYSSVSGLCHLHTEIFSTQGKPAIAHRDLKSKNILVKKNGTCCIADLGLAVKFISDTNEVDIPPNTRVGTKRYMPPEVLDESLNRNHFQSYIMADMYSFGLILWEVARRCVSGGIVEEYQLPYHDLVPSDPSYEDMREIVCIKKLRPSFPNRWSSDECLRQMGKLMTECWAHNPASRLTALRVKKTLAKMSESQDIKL
procedureDetails: KINOMEscan kinase competition binding assay (DiscoverX)
details: absence of ATP, three-point titration; listed as Galunisertib
measurementName: IC50 (nM)
One number for each entry, in nM.

The reported value for Cc1cccc(-c2nn3c(c2-c2ccnc4ccc(C(N)=O)cc24)CCC3)n1.O [galunisertib] in terms of IC50 is 471

###

systemUnderTest: Alk3/BMPR1A (Homo sapiens, UniProt P36894)
Sequence (P36894 24-532): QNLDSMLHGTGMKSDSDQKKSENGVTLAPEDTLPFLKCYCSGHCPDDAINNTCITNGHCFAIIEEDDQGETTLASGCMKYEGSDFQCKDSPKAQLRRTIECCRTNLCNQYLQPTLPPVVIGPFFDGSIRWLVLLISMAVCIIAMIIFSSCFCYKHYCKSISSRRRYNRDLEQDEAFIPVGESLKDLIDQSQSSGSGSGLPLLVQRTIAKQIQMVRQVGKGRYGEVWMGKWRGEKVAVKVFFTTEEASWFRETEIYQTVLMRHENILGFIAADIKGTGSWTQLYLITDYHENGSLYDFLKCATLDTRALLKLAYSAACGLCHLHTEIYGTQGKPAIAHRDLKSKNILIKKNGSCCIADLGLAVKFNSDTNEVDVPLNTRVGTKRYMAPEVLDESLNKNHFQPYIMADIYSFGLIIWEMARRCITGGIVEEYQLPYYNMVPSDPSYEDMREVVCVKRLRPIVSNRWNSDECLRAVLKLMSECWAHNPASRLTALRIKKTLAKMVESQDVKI
procedureDetails: KINOMEscan kinase competition binding assay (DiscoverX)
details: absence of ATP, three-point titration
measurementName: IC50 (µM)
Give bare numbers, in µM.

The reported value for "Cc1cccc(-c2nn3c(c2-c2ccnc4ccc(C(N)=O)cc24)CCC3)n1.O" in terms of IC50 is 16.8

###

systemUnderTest: TNIK (Homo sapiens)
Sequence (Q9UKE5 whole entry): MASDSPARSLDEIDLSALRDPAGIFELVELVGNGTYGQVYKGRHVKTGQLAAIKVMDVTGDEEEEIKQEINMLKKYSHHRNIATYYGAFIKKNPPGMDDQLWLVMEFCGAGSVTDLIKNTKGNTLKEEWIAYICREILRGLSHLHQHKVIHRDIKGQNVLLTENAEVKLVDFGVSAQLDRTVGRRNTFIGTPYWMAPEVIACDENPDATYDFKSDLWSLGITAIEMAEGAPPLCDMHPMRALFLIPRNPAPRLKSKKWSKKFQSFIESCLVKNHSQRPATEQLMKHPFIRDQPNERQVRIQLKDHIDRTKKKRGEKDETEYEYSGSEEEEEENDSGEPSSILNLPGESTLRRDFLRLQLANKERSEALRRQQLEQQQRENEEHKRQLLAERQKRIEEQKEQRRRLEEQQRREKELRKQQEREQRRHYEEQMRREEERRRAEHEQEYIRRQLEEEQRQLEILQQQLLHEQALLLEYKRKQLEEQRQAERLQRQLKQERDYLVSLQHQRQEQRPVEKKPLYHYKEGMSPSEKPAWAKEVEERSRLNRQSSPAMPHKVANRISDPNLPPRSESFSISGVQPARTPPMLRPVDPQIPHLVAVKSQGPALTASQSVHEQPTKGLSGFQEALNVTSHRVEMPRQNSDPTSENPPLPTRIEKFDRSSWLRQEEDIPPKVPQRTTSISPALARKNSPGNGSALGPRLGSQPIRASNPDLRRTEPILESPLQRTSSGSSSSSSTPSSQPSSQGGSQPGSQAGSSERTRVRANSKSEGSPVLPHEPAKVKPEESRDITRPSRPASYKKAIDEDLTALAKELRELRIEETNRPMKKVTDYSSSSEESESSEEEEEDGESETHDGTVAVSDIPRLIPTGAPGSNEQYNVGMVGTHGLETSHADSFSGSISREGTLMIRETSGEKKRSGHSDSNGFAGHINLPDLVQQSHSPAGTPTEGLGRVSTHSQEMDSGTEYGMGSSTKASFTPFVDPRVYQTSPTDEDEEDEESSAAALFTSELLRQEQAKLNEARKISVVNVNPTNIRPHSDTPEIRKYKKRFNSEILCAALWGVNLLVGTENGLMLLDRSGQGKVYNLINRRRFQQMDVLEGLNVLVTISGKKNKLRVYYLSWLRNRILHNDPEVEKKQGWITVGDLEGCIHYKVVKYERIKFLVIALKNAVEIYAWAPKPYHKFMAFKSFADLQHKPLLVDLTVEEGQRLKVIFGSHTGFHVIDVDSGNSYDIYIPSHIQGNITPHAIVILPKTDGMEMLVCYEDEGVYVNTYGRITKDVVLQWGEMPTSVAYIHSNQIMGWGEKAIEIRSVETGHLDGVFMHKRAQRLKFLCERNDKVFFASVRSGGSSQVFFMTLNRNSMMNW
procedureDetails: KINOMEscan kinase competition binding assay (DiscoverX)
details: absence of ATP, three-point titration
measurementName: IC50
Please answer in the form of a number followed by its unit of measurement.

The reported value for "Cc1cccc(-c2nn3c(c2-c2ccnc4ccc(C(N)=O)cc24)CCC3)n1.O" in terms of IC50 is 510 nM

###

systemUnderTest: TGFβR2 (Homo sapiens, UniProt P37173)
Construct: purchased DiscoverX
Sequence (P37173 23-567): as the sequence (P37173 23-567) above
procedureDetails: KINOMEscan kinase competition binding assay (DiscoverX)
details: absence of ATP, three-point titration
measurementName: pIC50
Give bare numbers, as −log10 of the molar value.

The reported value for "Cc1cccc(-c2nn3c(c2-c2ccnc4ccc(C(N)=O)cc24)CCC3)n1.O" in terms of pIC50 is 6.68

###

systemUnderTest: UniProt:O14976
Sequence (O14976 whole entry): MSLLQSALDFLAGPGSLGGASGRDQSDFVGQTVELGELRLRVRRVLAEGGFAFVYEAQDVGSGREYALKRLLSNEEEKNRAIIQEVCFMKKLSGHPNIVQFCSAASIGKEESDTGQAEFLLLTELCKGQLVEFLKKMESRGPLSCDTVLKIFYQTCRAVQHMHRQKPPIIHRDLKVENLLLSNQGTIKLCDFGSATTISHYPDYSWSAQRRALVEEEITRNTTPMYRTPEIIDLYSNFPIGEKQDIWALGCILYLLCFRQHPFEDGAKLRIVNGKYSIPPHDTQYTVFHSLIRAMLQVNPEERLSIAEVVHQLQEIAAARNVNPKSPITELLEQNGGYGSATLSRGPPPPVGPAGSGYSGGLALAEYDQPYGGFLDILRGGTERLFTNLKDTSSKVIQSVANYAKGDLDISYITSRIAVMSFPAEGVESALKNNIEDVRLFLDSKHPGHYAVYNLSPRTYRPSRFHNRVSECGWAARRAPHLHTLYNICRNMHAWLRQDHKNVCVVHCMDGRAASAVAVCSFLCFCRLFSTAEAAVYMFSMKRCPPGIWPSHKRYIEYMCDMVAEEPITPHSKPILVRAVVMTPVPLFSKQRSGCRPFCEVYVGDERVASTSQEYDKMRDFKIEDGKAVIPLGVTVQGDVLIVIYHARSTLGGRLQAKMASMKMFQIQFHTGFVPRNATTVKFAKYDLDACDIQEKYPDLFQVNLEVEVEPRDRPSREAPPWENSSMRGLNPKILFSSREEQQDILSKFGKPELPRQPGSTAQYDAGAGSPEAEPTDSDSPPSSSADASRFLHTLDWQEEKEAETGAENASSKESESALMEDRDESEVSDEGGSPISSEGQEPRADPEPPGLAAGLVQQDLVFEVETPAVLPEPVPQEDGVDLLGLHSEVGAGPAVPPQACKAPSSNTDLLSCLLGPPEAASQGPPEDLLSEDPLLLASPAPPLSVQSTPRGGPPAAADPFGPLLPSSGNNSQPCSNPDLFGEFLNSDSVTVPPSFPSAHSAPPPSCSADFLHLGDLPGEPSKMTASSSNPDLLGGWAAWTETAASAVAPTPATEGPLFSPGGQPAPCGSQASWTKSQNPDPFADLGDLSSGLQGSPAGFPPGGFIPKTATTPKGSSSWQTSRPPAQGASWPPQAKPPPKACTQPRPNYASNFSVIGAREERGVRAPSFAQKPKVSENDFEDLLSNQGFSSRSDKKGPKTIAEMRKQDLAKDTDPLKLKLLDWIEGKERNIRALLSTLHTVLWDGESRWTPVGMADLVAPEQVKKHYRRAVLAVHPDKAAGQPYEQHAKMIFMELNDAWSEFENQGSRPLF
procedureDetails: KINOMEscan kinase competition binding assay (DiscoverX)
details: absence of ATP, three-point titration
measurementName: IC50 (nM)
Answers are plain numbers, in nM.

Measured on UniProt:O14976, "Cc1cccc(-c2nn3c(c2-c2ccnc4ccc(C(N)=O)cc24)CCC3)n1.O" has a documented IC50 of 310

###

systemUnderTest: ZAK (Homo sapiens, UniProt Q9NYL2)
Sequence (Q9NYL2 whole entry): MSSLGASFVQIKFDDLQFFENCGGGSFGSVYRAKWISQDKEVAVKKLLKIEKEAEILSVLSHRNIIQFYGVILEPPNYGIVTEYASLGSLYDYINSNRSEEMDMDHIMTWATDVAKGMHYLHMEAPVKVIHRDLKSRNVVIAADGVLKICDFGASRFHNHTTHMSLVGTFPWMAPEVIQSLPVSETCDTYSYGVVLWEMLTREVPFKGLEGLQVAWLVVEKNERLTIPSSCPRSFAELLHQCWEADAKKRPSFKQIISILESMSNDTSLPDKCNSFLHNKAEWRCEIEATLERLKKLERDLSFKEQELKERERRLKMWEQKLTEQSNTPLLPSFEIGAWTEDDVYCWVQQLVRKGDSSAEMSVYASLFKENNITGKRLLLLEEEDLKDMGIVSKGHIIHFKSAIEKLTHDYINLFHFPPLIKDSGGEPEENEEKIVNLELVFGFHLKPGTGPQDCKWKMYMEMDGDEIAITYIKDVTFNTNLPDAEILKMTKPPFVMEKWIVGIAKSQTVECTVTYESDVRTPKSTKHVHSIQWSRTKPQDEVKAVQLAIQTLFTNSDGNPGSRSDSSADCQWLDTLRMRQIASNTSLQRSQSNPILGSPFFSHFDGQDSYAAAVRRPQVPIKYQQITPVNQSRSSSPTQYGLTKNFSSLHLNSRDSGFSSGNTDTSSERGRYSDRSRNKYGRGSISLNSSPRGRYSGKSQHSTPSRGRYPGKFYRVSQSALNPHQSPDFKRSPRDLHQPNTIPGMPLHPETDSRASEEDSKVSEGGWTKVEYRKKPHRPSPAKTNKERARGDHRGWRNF
procedureDetails: KINOMEscan kinase competition binding assay (DiscoverX)
details: absence of ATP, three-point titration
measurementName: IC50 (nM)
Numbers only, in nM.

The reported value for "Cc1cccc(-c2nn3c(c2-c2ccnc4ccc(C(N)=O)cc24)CCC3)n1.O" in terms of IC50 is 860

###

procedureDetails: in vivo
details: female, athymic nu/nu, mouse, plasma, po, 75 mg/kg
measurementName: Tmax (min)
Answers are plain numbers, in min.

The reported value for "Cc1cccc(-c2nn3c(c2-c2ccnc4ccc(C(N)=O)cc24)CCC3)n1.O" in terms of Tmax is 30
